Reported pIC50 values for the following compounds.
- target_desc: Mu-type opioid receptor (Cavia porcellus)
- Sequence (P97266 whole entry): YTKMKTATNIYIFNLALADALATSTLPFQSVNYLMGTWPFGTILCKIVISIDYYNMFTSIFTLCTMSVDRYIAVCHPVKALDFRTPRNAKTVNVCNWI
- protocol_notes: Agonist activity at mu opioid receptor in guinea pig ileum assessed as inhibition of electrically-stimulated muscle contraction
pIC50: −log10 of the molar value.

{"columns": ["mol", "target_desc", "pIC50"],
 "data": [
  ["Cc1cc(O)cc(C)c1C[C@H](N)C(=O)NCCCCc1nc(C)c(C)[nH]c1=O", "Mu-type opioid receptor (Cavia porcellus)", "< 5.00"],
  ["Cc1cc(O)cc(C)c1C[C@H](N)C(=O)NCCc1nc(C)c(C)[nH]c1=O", "Mu-type opioid receptor (Cavia porcellus)", "< 5.00"],
  ["Cc1cc(O)cc(C)c1C[C@H](N)C(=O)NCCCCc1nc(C)c(CCc2ccccc2)[nH]c1=O", "Mu-type opioid receptor (Cavia porcellus)", 7.80],
  ["Cc1cc(O)cc(C)c1C[C@H](N)C(=O)NCCCCc1[nH]c(=O)c(C)nc1C", "Mu-type opioid receptor (Cavia porcellus)", "< 5.00"],
  ["Cc1cc(O)cc(C)c1C[C@H](N)C(=O)NCCCc1nc(C)c(Cc2ccccc2)[nH]c1=O", "Mu-type opioid receptor (Cavia porcellus)", "< 5.00"],
  ["Cc1c[nH]c(=O)c(CCCCNC(=O)[C@@H](N)Cc2c(C)cc(O)cc2C)n1", "Mu-type opioid receptor (Cavia porcellus)", "< 5.00"],
  ["Cc1cc(O)cc(C)c1C[C@H](N)C(=O)NCCCCc1[nH]c(=O)cnc1C", "Mu-type opioid receptor (Cavia porcellus)", "< 5.00"],
  ["Cc1cc(O)cc(C)c1C[C@H](N)C(=O)NCc1nc(C)c(C)[nH]c1=O", "Mu-type opioid receptor (Cavia porcellus)", "< 5.00"],
  ["Cc1cc(O)cc(C)c1C[C@H](N)C(=O)NCCCCc1nc(C)c(Cc2ccccc2)[nH]c1=O", "Mu-type opioid receptor (Cavia porcellus)", "< 5.00"],
  ["Cc1cc(O)cc(C)c1C[C@H](N)C(=O)NCCCc1nc(C)c(CCc2ccccc2)[nH]c1=O", "Mu-type opioid receptor (Cavia porcellus)", 5.26],
  ["Cc1cccc(C)c1Cc1[nH]c(=O)c(CCCCNC(=O)[C@@H](N)Cc2c(C)cc(O)cc2C)nc1C", "Mu-type opioid receptor (Cavia porcellus)", 5.20],
  ["Cc1cc(O)cc(C)c1C[C@H](N)C(=O)NCCCc1nc(C)c(C)[nH]c1=O", "Mu-type opioid receptor (Cavia porcellus)", "< 5.00"]
]}
